Assay: yeast display, Sf9 membrane polyspecificity reagent, FACS + sequencing; frameworks hold sequencing errors
metric: polyreactivity (PSR sort gate)

[[record]]
biopolymer_sequence = "QVQLVESGGGLVQAGGSLRLSCAASGRISDDYAMGWYRQAPGKERELVADITSGGNTYYADSVKGRFTISRDNAKNTVYLQMNSLKPEDTAVYYCNAYYVGYIRYWTNKLVDYWGQGTQVTVSS"
metric = "polyreactivity (PSR sort gate)"
result = "high polyreactivity"

[[record]]
biopolymer_sequence = "QDQLVESGGGLVQAGGSLGLSCAASGSIFGFYDMGWSRQAPGKERELVAAITSGDSTHYADSVKGRFTISRDNAQNTVYVQMNSLKPVDTAVYYCAASAPYRYYRSAYYSWGQGTQVTVSS"
metric = "polyreactivity (PSR sort gate)"
result = "low polyreactivity"

[[record]]
biopolymer_sequence = "QVHLVESGGGLVQAGGSLLLSCAASGRILGPNAMGWYIQAPGKERELVAAINSGGSTNYADSVKGRFTISRDNAKNTVYLQMNSLKAEDTAVYYCNAVYGVYDFNYWGQGTQVTVSS"
metric = "polyreactivity (PSR sort gate)"
result = "low polyreactivity"

[[record]]
biopolymer_sequence = "QVQLVESGGGLVQAGGSLRLSCAASGSTFTINVMGWYRQSPGKERELVAAINGGGRTNYADSVKGRFTISRDNAKNTVYLQMNSLKPEDTAVYYCAADGLSNVRQMDYWGQGTQVTVSS"
metric = "polyreactivity (PSR sort gate)"
result = "low polyreactivity"

[[record]]
biopolymer_sequence = "QVQLVESGGGLVQAGGSLRLSCAASGFTFSKYAMGWYRQAPGKEREFVAAISSRGGRTYYADSVKGRFTISRDNAKNTVYLQMNSLKPEDTAVYYCAVDVHLVTEYDYWGQGTQVTVSS"
metric = "polyreactivity (PSR sort gate)"
result = "high polyreactivity"


Measured values drawn from the nanobody polyreactivity screen of Harvey et al. (2022) for this set.
